Recorded GI50 values for a group of compounds are listed next.
Test system: HOP-62
Assay: NCI tumour cell line growth inhibition, 48 h
Active and inactive are the calls of the source. No stated cut-off is given here; in the data, active = GI50 up to about 1.1 µM and inactive = higher.

Observe how each entry below is paired with its result.
Cc1ccc(-c2cc(-c3ccc(Cl)cc3)nc(/N=C3\C(=O)N(CN(C)C)c4ccccc43)n2)cc1
81.5 µM (inactive)
Cc1ccc([N+](=O)[O-])cc1S(=O)(=O)Nc1ccc(C2=NN(C(=O)c3ccccc3)C(c3ccccc3O)C2)cc1 (stereo not given)
25.3 µM (inactive)
O=c1[nH]nc(-c2ccccc2)n1/N=C/c1ccc([N+](=O)[O-])o1
6.11 µM (inactive)
Cc1nc2c(nc1C)-c1c(c3c(n1C)C(=O)CCC3)C(=O)C2=O
0.885 µM (active)
Cc1ccc(C(=O)C#Cc2cnc(O)nc2O)cc1
29.3 µM (inactive)

Req: Name the recorded GI50 of COC(=O)[C@@H]1CSC(=S)N1C(=O)C[C@H]1CC=CC[C@H]1CC(=O)Sc1ccccc1 , assay system HOP-62.
Resp: 20.7 µM (inactive)

Req: Name the recorded GI50 of O=C(CC(=O)N1N=C(c2ccccc2)C(/N=N/c2ccc(S(=O)(=O)CCOS(=O)(=O)O)cc2)C1=O)Nc1ccc(Cl)cc1 (stereo not given) , assay system HOP-62.
Resp: > 100 µM (inactive)

Req: Name the recorded GI50 of CC1(C)OP(=O)(O)CC1=O , assay system HOP-62.
Resp: > 100 µM (inactive)

Req: Name the recorded GI50 of CC(=O)OCC1OC(n2c(-c3ccc(Cl)cc3)cc(-c3ccccc3)c(C#N)c2=S)C(OC(C)=O)C(OC(C)=O)C1OC(C)=O (stereo not given) , assay system HOP-62.
Resp: 7.85 µM (inactive)

Req: Name the recorded GI50 of CC(=O)O[C@@]12CO[C@@H]1C[C@@H](O)[C@@]1(C)C(=O)[C@H](O)C3=C(C)[C@@H](OC(=O)[C@H](O)[C@@H](NC(=O)c4ccccc4)c4ccccc4)C[C@@](O)([C@@H](OC(=O)c4ccccc4)C12)C3(C)C (stereo not given in full) , assay system HOP-62.
Resp: 0.0893 µM (active)

Req: Name the recorded GI50 of COC(=O)[C@@H]1COC(=O)N1 , assay system HOP-62.
Resp: > 100 µM (inactive)

Req: Name the recorded GI50 of CC(=O)OCC1=C(C)C(OC(=O)C(OC(C)=O)[C@@H](NC(=O)c2ccccc2)c2ccccc2)CCC1(C)C (stereo not given in full) , assay system HOP-62.
Resp: > 100 µM (inactive)

----------
System: NCI-H522
Test: NCI tumour cell line growth inhibition, 48 h
Active and inactive are the calls of the source. No stated cut-off is given here; in the data, active = GI50 up to about 1.1 µM and inactive = higher.
Parameter call: string, one of yes (active), no (inactive)

Worked examples follow.
C[C@]12CCC(=O)C=C1CC[C@@H]1[C@@H]2CC[C@]2(C)C(=O)/C(=C/c3ccc([N+](=O)[O-])cc3)C[C@@H]12
no
Cc1cc(O)c(C(c2ccncc2)c2c(O)cc(C)[nH]c2=O)c(=O)[nH]1
no
COC1(c2ccccc2)N=C(S)NN=C1c1ccccc1 (centres undefined)
no

Req: What did the test return for CCn1c(-c2ccc(OC)cc2)nc2c1C(=O)c1ccccc1C2=O ?
Resp: no

Req: What did the test return for CC1C(O)Oc2cc3c(cc2C1c1ccccc1O)OCO3 (centres undefined) ?
Resp: no

Req: What did the test return for Cc1nc2c(nc1C)-c1c(c3c(n1C)C(=O)CCC3)C(=O)C2=O ?
Resp: yes

Req: What did the test return for CN1CCN(c2ccc([N+](=O)[O-])c3no[n+]([O-])c23)CC1 ?
Resp: yes

Req: What did the test return for N=C(CC(=O)Nc1ccccn1)c1ccccc1 ?
Resp: no

Req: What did the test return for COc1nc(NC2OC(COC(C)=O)C(OC(C)=O)C(OC(C)=O)C2OC(C)=O)c(/N=C/C=N/c2c(NC3OC(COC(C)=O)C(OC(C)=O)C(OC(C)=O)C3OC(C)=O)nc(OC)[nH]c2=O)c(=O)[nH]1 (centres undefined) ?
Resp: no

----------
Tested on: SNB-19
Assay: NCI tumour cell line growth inhibition, 48 h
The source made the active and inactive calls. No stated cut-off is given here; in the data, active = GI50 up to about 1.1 µM and inactive = higher.
Parameter call: string, one of active, inactive

Worked examples follow.
CC1=NN(c2nc(N)nc(/C(C#N)=C/c3ccc([N+](=O)[O-])o3)n2)C(C)(C)C1
inactive
COc1cc(C2c3cc4c(cc3[C@@H](NCCN(C)C)C3COC(=O)[C@H]23)OCO4)cc(OC)c1O (stereo not given in full)
active

Req: What did the test return for NC1CCCCC1.O=P(O)(O)C(CSc1ccccc1)P(=O)(O)O ?
Resp: inactive

Req: What did the test return for CCCNC(=O)C(C)(Cl)C(=O)c1ccccc1O (stereo not given) ?
Resp: inactive

Req: What did the test return for O=C(O)C(CCc1ccccc1)N1C(=O)c2ccccc2C1=O (stereo not given) ?
Resp: inactive

----------
Test system: IGROV-1
Assay: NCI tumour cell line growth inhibition, 48 h
Calls of active or inactive are those of the source. Cut-off read from the data, not from the text of the source: active = GI50 up to about 1.1 µM and inactive = higher.
endpointName: GI50

O=C(NCCCCCCNC(=O)NC1OCC(O)C(O)C1O)NC1OCC(O)C(O)C1O (stereo not given)
> 100 µM (inactive)

Req: Indicate its recorded GI50; the compound in question is CCOP(=O)(OCC)C1CC(O)C(=O)N1 (stereo not given)
Resp: > 100 µM (inactive)

Req: Indicate its recorded GI50; the compound in question is [N-]=[N+]=NC1C(O)C(CO)OC1n1ccc(N)nc1=O (stereo not given)
Resp: 310 µM (inactive)

----------
Test system: UACC-62
Test: NCI tumour cell line growth inhibition, 48 h
Calls of active or inactive are those of the source. Cut-off read from the data, not from the text of the source: active = GI50 up to about 1.1 µM and inactive = higher.
Recorded GI50 values for a group of molecules are listed next.

Observe how each entry below is paired with its result.
S=C(CSc1ccccc1)Nc1cccc2ccccc12
32.7 µM (inactive)
Cc1cc(-c2nc3ccc(F)cc3s2)ccc1N
89.1 µM (inactive)
Clc1cc(Cl)c2ns[s+]c2c1Cl
> 100 µM (inactive)
Nc1nc(SCCC/C=C/B(O)O)nc2c1ncn2C1OC(COP(=O)(O)O)C(O)C1O (stereo not drawn)
> 203 µM (inactive)
C[C@@H]1C[C@H]2[C@@H]3CCC4=CC(=O)C=C[C@]4(C)[C@@]3(Cl)[C@@H](Cl)C[C@]2(C)[C@@]1(O)C(=O)COP(=O)(O)O
> 100 µM (inactive)

Req: Name the recorded GI50 of CC(=O)NC1C(OCc2ccccc2)OC(CO)C(O)C1OC(C)C(=O)NC(C(=O)NC(CCC(=O)NCCCC(=O)Nc1ccc2c(c1)CN1C(=O)c3ccccc3C1=N2)C(N)=O)C(C)C (stereo not drawn) , assay system UACC-62.
Resp: > 100 µM (inactive)

Req: Name the recorded GI50 of O=C1/C(=N/c2ccccc2)Oc2cc(O)ccc21 , assay system UACC-62.
Resp: > 100 µM (inactive)

Req: Name the recorded GI50 of FC(F)(F)C(C1=NC(C(F)(F)F)(C(F)(F)F)N=C(N2CCOCC2)O1)C(F)(F)F , assay system UACC-62.
Resp: 13.5 µM (inactive)

----------
Test system: IGROV-1
Experiment: NCI tumour cell line growth inhibition, 48 h
Calls of active or inactive are those of the source. Rule as the data show it: active = GI50 up to about 1.1 µM and inactive = higher.
endpointName: GI50

Observe how each entry below is paired with its result.
C=C1C(=O)O[C@@H]2C[C@@H](C)[C@@H]3[C@@H](OC4OC(COC(C)=O)C(O)C(O)C4O)CC(=O)[C@@]3(C)C[C@H]12 (some centres undefined)
2.17 µM (inactive)
CC(=O)O[C@@H]1C2C(=O)OC(=O)C2C2CCC[C@]23O[C@H]13 (some centres undefined)
> 100 µM (inactive)
COc1ccc(/C=C2\N=C(c3ccccc3)N(Nc3nnc(NN4C(=O)/C(=C/c5ccc(OC)cc5)N=C4c4ccccc4)c4ccccc34)C2=O)cc1
> 100 µM (inactive)

# next molecule below
Req: Indicate its recorded GI50; the molecule in question is COc1cc(OC)c(/C=C\c2ccnc3ccccc23)c(OC)c1
Resp: 1.45 µM (inactive)

----------
Test system: TK-10
Assay: NCI tumour cell line growth inhibition, 48 h
Activity calls are given as the source filed them. Cut-off read from the data, not from the text of the source: active = GI50 up to about 1.1 µM and inactive = higher.
endpointName: GI50

Observe how each entry below is paired with its result.
O=C(NC12CC3CC(CC(C3)C1)C2)n1cnc2c(Cl)ncnc21
> 100 µM (inactive)
CSc1nc(SC)c2c(C#N)n[nH]c2n1
49.4 µM (inactive)
CCc1cccc(C(C)C)c1NC(=O)C(=O)CC(=O)c1c(C)[n+]([O-])c2ccccc2[n+]1[O-]
> 100 µM (inactive)
Oc1cc(-c2cccc(OCc3ccccc3)c2)nc2cc3c(cc12)OCO3
2.32 µM (inactive)
CCOC(=O)c1c2ccc(/C=C/c3ccccc3)ccc-2c(C(=O)OCC)c1N
> 100 µM (inactive)

Req: Indicate its recorded GI50; the compound in question is O=C(O)CSc1nnc(-c2ccccc2O)[nH]1
Resp: > 100 µM (inactive)

Origin of values: ChEMBL document CHEMBL1201862
